SYSTEM_UNDER_TEST: SPAK (Homo sapiens, UniProt Q9UEW8)
Construct: GST (N, cleaved yes); made in house; host or cells: E. coli EcAR7 with Sep-OTS
ASSAY_COMMENT: In vitro SPAK ELISA assay monitoring NKCC1 phosphorylation (T^PNKCC1 antibody)
Type: biochemical
CONDITION: screening platform, FIG. 21; read-out: in vitro IC50
pIC50: −log10 of the molar value.

{"STRUCTURE_SMILES_STRING": "COc1ccc(Nc2ncc(C#N)c(Nc3ccccc3C(N)=O)n2)cc1N1CCN(C)CC1", "SYSTEM_UNDER_TEST": "SPAK (Homo sapiens, UniProt Q9UEW8)", "pIC50": "~7.22"}

###

SYSTEM_UNDER_TEST: SPAK (Homo sapiens, UniProt Q9UEW8)
Construct: GST (N, cleaved yes); made in house; host or cells: E. coli EcAR7 with Sep-OTS
ASSAY_COMMENT: In vitro SPAK ELISA assay monitoring NKCC1 phosphorylation (T^PNKCC1 antibody)
Assay type: biochemical
CONDITION: on target activity in vitro; read-out: IC50 In vitro
pIC50: −log10 of the molar value.

{"STRUCTURE_SMILES_STRING": "COc1ccc(Nc2ncc(C#N)c(Nc3ccccc3-c3ncco3)n2)cc1N1CCN(C)CC1", "pIC50": 5.05}
{"STRUCTURE_SMILES_STRING": "COc1ccc(Nc2ncc(C#N)c(Nc3ccccc3-c3nnn[nH]3)n2)cc1N1CCN(C)CC1", "pIC50": 5.46}
{"STRUCTURE_SMILES_STRING": "CONC(=O)c1ccccc1Nc1nc(Nc2ccc(OC)c(N3CCN(C)CC3)c2)ncc1C#N", "pIC50": 5.59}
{"STRUCTURE_SMILES_STRING": "CNC(=O)c1ccccc1Nc1nc(Nc2ccc(OC)c(N3CCN(C)CC3)c2)ncc1C#N", "pIC50": 5.28}
{"STRUCTURE_SMILES_STRING": "COc1ccc(Nc2ncc(C#N)c(Nc3ccccc3-c3nc[nH]n3)n2)cc1N1CCN(C)CC1", "pIC50": 4.92}
